- target: T1, cynomolgus CD73 on cells (cynomolgus)
- T1 construct: whole, on cells; also called native CD73 on MK-1 cells (cynomolgus)
- protocol details: flow cytometry on MK-1 cells, IgG1-TM
Kindly supply the reported Kd values for the records listed here.
// unit must come after the numeric part

Record request: Kd value, item 73combo2 (C2 + GRVE + HPT) (antibody, IgG1, V domains shown, also called clone 10 combo2) VH: EVQLLESGGGLVQPGGSLRLSCAASGFTFSSYAYSWVRQAPGKGLEWVSLIWGSWGSTYYADSVKGRFTISRDNSKNTLYLQMNSLRAEDTAVYYCARLGYGRVDEWGRGTLVTVSS VL: QSVLTQPPSASGTPGQRVTISCSGSLSNIGRNPVNWYQQLPGTAPKLLIYLDNLRLGGVPDRFSGSKSGTSASLAISGLQSEDEADYYCATWDDSHPGWTFGGGTKLTVL
0.074 nM

Record request: Kd value, item G10 (antibody, IgG1, V domains shown, also called clone 10 G10) VH: EVQLLESGGGLVQPGGSLRLSCAASGFTFSSYAYSWVRQAPGKGLEWVSAISGSWGRTYYADSVKGRFTISRDNSKNTLYLQMNSLRAEDTAVYYCARLGYSTIDLWGRGTLVTVSS VL: QSVLTQPPSASGTPGQRVTISCSGSLSNIGRNDVNWYQQLPGTAPKLLIYLNNQRLGGVPDRFSGSKSGTSASLAISGLQSEDEADYYCATWDDSLKGWLFGGGTKLTVL
0.258 nM

Record request: Kd value, item CD730002 2C5 (antibody, IgG1, V domains shown, IgG1; also called clone 2C5 antibody) VH: EVQLLESGGGLVQPGGSLRLSCAASGFTFSSYAMSWVRQAPGKGLEWVSAISGSGGSTYYADSVKRRFTISRDNSKNTLYLQMNSLRAEDTAVYYCARDKGYYWYMDVWGQGTMVTVSS VL: QSVLTQPPSVSVSPGQTASITCSGDKVGDKYASWYQQKPGQSPVLVIYEDTKRLSGIPERFSGSNSGNTATLTISGTQAMDEADYYCQAWDTSFWVFGGGTKLTVL
0.063 nM
